These measurements were taken from patent EP0231151A2.

test: No toxic effect level (NTEL) / tolerability, repeated oral dosing in dogs
condition: dog, in vivo, no toxic effect level, 4 weeks, p.o., read-out: NTEL (4 weeks) dogs
reported metric: NOAEL at 672 h (mg/kg/day)

| molecule | unit name | observed measurement |
| --- | --- | --- |
| CCCN1C[C@@H](NS(=O)(=O)N(CC)CC)C[C@@H]2c3cccc4[nH]cc(c34)C[C@H]21 [Compound C] | mg/kg/day | 0.2 |

* * *

test: No toxic effect level (NTEL), repeated oral dosing in rats
condition: rat, in vivo, 26 weeks, p.o.

| structure string | NOAEL at 4368 h |
| --- | --- |
| CCN(CC)S(=O)(=O)N[C@H]1C[C@@H]2c3cccc4c3c(cn4CC)C[C@H]2N(C)C1 | 5 to 17 mg/kg/day |
